FYI, the data here is from paper PMC5662840.

- targetDesc: P-gp (Homo sapiens, UniProt P08183)
- Construct: endogenous in cells; host or cells: Caco-2 cells (cell bank of Chinese Academy of Sciences)
- Sequence (P08183 whole entry): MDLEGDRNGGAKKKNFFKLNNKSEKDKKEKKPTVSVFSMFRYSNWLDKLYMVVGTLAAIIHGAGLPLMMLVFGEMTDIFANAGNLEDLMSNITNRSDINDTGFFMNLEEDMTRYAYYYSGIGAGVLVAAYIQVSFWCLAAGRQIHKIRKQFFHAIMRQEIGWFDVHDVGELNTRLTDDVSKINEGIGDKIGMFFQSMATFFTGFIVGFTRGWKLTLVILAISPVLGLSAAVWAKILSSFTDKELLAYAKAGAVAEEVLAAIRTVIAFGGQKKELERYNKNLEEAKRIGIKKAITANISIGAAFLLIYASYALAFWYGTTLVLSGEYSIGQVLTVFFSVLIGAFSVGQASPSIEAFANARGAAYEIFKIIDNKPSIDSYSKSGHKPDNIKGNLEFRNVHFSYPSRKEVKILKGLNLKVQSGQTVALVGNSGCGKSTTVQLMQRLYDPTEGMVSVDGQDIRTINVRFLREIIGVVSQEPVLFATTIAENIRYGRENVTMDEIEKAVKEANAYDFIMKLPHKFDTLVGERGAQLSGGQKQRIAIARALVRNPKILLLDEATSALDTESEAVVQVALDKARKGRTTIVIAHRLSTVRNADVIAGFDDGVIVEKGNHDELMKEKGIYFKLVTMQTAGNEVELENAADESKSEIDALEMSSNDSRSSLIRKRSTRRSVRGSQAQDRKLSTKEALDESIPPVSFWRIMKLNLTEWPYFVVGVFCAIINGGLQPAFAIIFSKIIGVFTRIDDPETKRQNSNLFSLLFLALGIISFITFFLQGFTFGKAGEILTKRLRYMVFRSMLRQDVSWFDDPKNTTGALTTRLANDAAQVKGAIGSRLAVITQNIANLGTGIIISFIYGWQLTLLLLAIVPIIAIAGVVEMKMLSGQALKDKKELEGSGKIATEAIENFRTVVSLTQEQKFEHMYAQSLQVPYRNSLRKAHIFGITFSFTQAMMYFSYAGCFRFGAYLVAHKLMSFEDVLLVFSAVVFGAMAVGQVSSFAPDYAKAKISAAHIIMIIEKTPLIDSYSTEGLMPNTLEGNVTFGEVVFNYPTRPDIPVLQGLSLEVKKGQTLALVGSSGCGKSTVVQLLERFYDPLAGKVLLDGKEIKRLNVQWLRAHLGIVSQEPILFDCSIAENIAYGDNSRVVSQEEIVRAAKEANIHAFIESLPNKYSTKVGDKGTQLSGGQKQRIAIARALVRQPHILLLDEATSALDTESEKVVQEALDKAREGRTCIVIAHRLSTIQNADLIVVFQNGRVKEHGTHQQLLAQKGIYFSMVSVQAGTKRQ
- experimentalProtocol: Inhibition transport study: GM with verapamil (P-gp inhibitor) across Caco-2 cells monolayer
- Format: in vitro ADME
- particulars: human, Caco-2; GM + verapamil (50 μmol); basolateral-to-apical; mean ± SEM, n = 3
- Experimental: As efflux transporters (P-gp and MRP2) are expressed on the apical side of Caco-2 cells, the absorption or efflux transport of indole alkaloids across this model was investigated in the presence of efflux transporters inhibitors. A selective P-gp inhibitor, verapamil (50 μmol), was added to GM. […] The absorption and efflux transport apparent permeability (Papp) of indole alkaloids were determined. […] The efflux ratio (γ) was calculated with the following equation:(4) γ=PappBL-AP/PappAP-BL. […]
parameter: Papp B→A at 4 h
Kindly write the number and append the unit.

>  <molecularString>
C=C[C@]12CN(C)[C@@H]3[C@H]4CO[C@H](C[C@H]41)[C@]1(C(=O)Nc4ccccc41)[C@@H]32

>  <Papp B→A at 4 h>
33.2 ×10⁻⁶ cm/s

$$$$

# input Hello, please tell me recorded Papp B→A at 4 h for this one: "CCC1=N[C@H]2C[C@@]3(C(=O)N(OC)c4ccccc43)[C@H]3C[C@@H]1[C@@H]2CO3"
# output 122 ×10⁻⁶ cm/s

###

- Tested on: P-gp and MRP2
- experimentalProtocol: Inhibition transport study: GM with ciclosporin (P-gp and MRP2 inhibitor) across Caco-2 cells monolayer
- Format: in vitro ADME, Human
- particulars: human, Caco-2; GM + ciclosporin; read-out: efflux ratio γ (Papp BL-AP / Papp AP-BL)
parameter: efflux ratio
Lab note: record just the number, no unit beside it.

>  <compound>
C=CC12CN(C)C3C4COC(CC41)C1(C(=O)N(OC)c4ccccc41)C32 (stereo not shown)

>  <efflux ratio>
1.32

$$$$
>  <compound>
C/C=C1\CN(C)[C@H]2C[C@@]3(C(=O)N(OC)c4ccccc43)[C@H]3C[C@@H]1[C@@H]2CO3

>  <efflux ratio>
1.24

$$$$
>  <compound>
CCC1=NC2CC3(C(=O)N(OC)c4ccccc43)C3OCC2C1C3O (stereo not shown)

>  <efflux ratio>
1.69

$$$$

# input for lookup
# input Consider the compound "C=C[C@@]12CN(C)[C@H]3C[C@]14C(=Nc1ccccc14)[C@H]1C[C@@H]2[C@@H]3CO1" . State its measured efflux ratio.
# output 1.19

###

- experimentalProtocol: Bidirectional transport of indole alkaloids from GE and GM extracts across Caco-2 cells monolayer
- Format: in vitro ADME, Human
- particulars: human, Caco-2; GM (control group); basolateral-to-apical; mean ± SEM, n = 3
parameter: Papp B→A at 4 h (nm/s)
Write the number in nm/s without appending the unit.

>  <compound>
C=C[C@]12CN(C)[C@@H]3[C@H]4CO[C@H](C[C@H]41)[C@]1(C(=O)Nc4ccccc41)[C@@H]32 [Gelsemine, gelsemine]

>  <u>
nm/s

>  <Papp B→A at 4 h>
73.3

$$$$

Next item in the queue.
# input Look up and report measured Papp B→A at 4 h for this entry: CCC1=N[C@H]2C[C@@]3(C(=O)N(OC)c4ccccc43)[C@H]3C[C@@H]1[C@@H]2CO3 [Gelsenicine, gelsenicine]
# output 66.9
